Protocol Text: Solubility of 10 mg compound in aqueous buffer at pH 7.3 and 37 degree Celsius after 4.0 hr
Type: physicochemical
Measurement Parameters: read-out: Concentration
Measure Name: solubility at 4 h (µg/mL)
The reply should contain only the number, in µg/mL.

Item: CCCC(=O)O[C@H]1C(n2cnc3c(N)ncnc32)O[C@H](CO)[C@@H]1O (stereo partly specified) | solubility at 4 h: 3380

====

Protocol Text: Compound was evaluated for the octanol/water partition coefficient at 37 degree Celsius at 24.5 hour
Assay type: physicochemical
Measure Name: Partition coefficient
Please state the value as a number alone, without comment.

# annotated cases, reported Partition coefficient shown
Compound	Partition coefficient
CC(=O)O[C@H]1C(n2cnc3c(N)ncnc32)O[C@H](CO)[C@@H]1O (some centres undefined)	0.122
CCCCC(=O)O[C@H]1C(n2cnc3c(N)ncnc32)O[C@H](CO)[C@@H]1O (some centres undefined)	2.8
CCC(=O)O[C@H]1C(n2cnc3c(N)ncnc32)O[C@H](CO)[C@@H]1O (some centres undefined)	0.329

Now look at this one.
Recorded result, CCCC(=O)O[C@H]1C(n2cnc3c(N)ncnc32)O[C@H](CO)[C@@H]1O (some centres undefined) , Partition coefficient: 0.975
